The measured values listed here are drawn from ChEMBL document CHEMBL1201862.

Listed next: entries and their corresponding GI50.
# Test system: HCC 2998
# assay_name: NCI tumour cell line growth inhibition, 48 h
The source made the active and inactive calls. Cut-off read from the data, not from the text of the source: active = GI50 up to about 1.1 µM and inactive = higher.

Ask | Dear colleague, I am looking for the recorded GI50 of the following compound: COC(=O)C1[C@@H](C(=O)OC)C12C=Cc1ccccc1C=C2 (some centres undefined)
Reply | > 100 µM (inactive)

Ask | Dear colleague, I am looking for the recorded GI50 of the following compound: `CCOC(=N)n1c(=O)n(C2=NCCN2)c2ccccc21`
Reply | > 100 µM (inactive)

---

# System: IGROV-1
# assay_name: NCI tumour cell line growth inhibition, 48 h
Active and inactive are the calls of the source. Rule as the data show it: active = GI50 up to about 1.1 µM and inactive = higher.
Pick one: true (1) = active, false (0) = inactive

>  <molecule>
NC(=O)c1ccccc1NC(=O)C(=O)Nc1n[nH]c(N)n1

>  <discrete_label>
false (0)

$$$$
>  <molecule>
CC1(C)N=C(N)N=C(N)N1c1ccc(CCCCc2ccc(S(=O)(=O)F)cc2Cl)c(Cl)c1

>  <discrete_label>
true (1)

$$$$
>  <molecule>
O=C(Nc1ccccc1SC(/C=C/NNC1=NN=C(c2ccccc2)C(c2ccccc2)N1)c1ccccc1)c1ccc(Cl)cc1Cl (centres undefined)

>  <discrete_label>
false (0)

$$$$

From here, focus on the item given below.
Ask | Which result was noted for this molecule in the test: `CCCN1C(=O)CCC2=C1CCc1c2ccc(Cl)c1Cl`
Reply | false (0)

---

# Test system: NCI-H522
# assay_name: NCI tumour cell line growth inhibition, 48 h
Activity calls are given as the source filed them. Cut-off read from the data, not from the text of the source: active = GI50 up to about 1.1 µM and inactive = higher.
Listed next: entries and their corresponding GI50.

Solved entries (count: 4):
>  <molecule>
Cc1cccc(NC(=O)C(=O)C2C(=O)NC(=O)NC2=O)c1C

>  <endpoint_value>
> 100 µM (inactive)

$$$$
>  <molecule>
O=C(O)CNC(=O)c1cccc2c(=O)c3ccccc3[nH]c12

>  <endpoint_value>
> 100 µM (inactive)

$$$$
>  <molecule>
N#CC12C(=O)N3C(=NC(c4ccccc4)NC3c3ccccc3)C1(C#N)C(c1ccccc1)NC1=C2CCC1 (stereo not given)

>  <endpoint_value>
> 100 µM (inactive)

$$$$
>  <molecule>
Cc1ccc(S(=O)(=O)NC2(C=O)CCCC3CCCCC32)cc1 (stereo not given)

>  <endpoint_value>
> 100 µM (inactive)

$$$$

Ask | Dear colleague, I am looking for the recorded GI50 of the following molecule: `N#CCCOc1cccc(C2(N3CCCCC3)CCCCC2)c1`
Reply | > 100 µM (inactive)

Ask | Dear colleague, I am looking for the recorded GI50 of the following molecule: C=CCCC(C)N(C(=O)OC(C)(C)C)S(=O)(=O)c1ccc(C)cc1 (stereo not given)
Reply | > 100 µM (inactive)

Ask | Dear colleague, I am looking for the recorded GI50 of the following molecule: `CCNCCCCNCC`
Reply | > 3240 µM (inactive)

Ask | Dear colleague, I am looking for the recorded GI50 of the following molecule: `O=C(/C=C/c1ccccc1)Oc1cccc(O)c1`
Reply | 6.81 µM (inactive)

Ask | Dear colleague, I am looking for the recorded GI50 of the following molecule: `O=c1c2ccccc2n2n1Cc1ccccc1C2`
Reply | > 100 µM (inactive)

Ask | Dear colleague, I am looking for the recorded GI50 of the following molecule: `CC(C)(C)c1cc(C(P(=O)(O)O)P(=O)(O)O)cc(C(C)(C)C)c1O`
Reply | > 100 µM (inactive)

---

# System: K562
# assay_name: NCI tumour cell line growth inhibition, 48 h
Activity calls are given as the source filed them. No stated cut-off is given here; in the data, active = GI50 up to about 1.1 µM and inactive = higher.
Pick one: t for active, f for inactive

Reference set, count: 2
>  <molecule>
COc1cccc(C2c3cc4c(cc3OC(NNS(=O)(=O)c3ccc(C)cc3)C2C)OCO4)c1OC (stereo not drawn)

>  <discrete_label>
f

$$$$
>  <molecule>
COP(=O)(CC(=O)C1OC(OCc2ccccc2)C(OCc2ccccc2)C(OCc2ccccc2)C1OCc1ccccc1)OC (stereo not drawn)

>  <discrete_label>
f

$$$$

Ask | Which result was noted for this molecule in the test: `CCc1c(-c2coc(CC/C(C)=C/c3ccccc3)n2)oc(OC)c(C)c1=O`
Reply | t

---

# Test system: HCT-116
# assay_name: NCI tumour cell line growth inhibition, 48 h
The source made the active and inactive calls. No stated cut-off is given here; in the data, active = GI50 up to about 1.1 µM and inactive = higher.
metric: GI50

Solved entries (count: 4):
>  <molecule>
CC1OC(=O)C(O)=C1O (stereo unspecified)

>  <assayed_system>
HCT-116

>  <GI50>
> 100 µM (inactive)

$$$$
>  <molecule>
CCC1C(=O)C[C@H]2[C@@H]3C(O)CC4=CC(=O)CC[C@]4(C)[C@H]3CC[C@]12C (stereo partly specified)

>  <assayed_system>
HCT-116

>  <GI50>
> 50 µM (inactive)

$$$$
>  <molecule>
O=C1NC(=O)C(CC2CCCCCCCCCCC2=O)C(=O)N1 (stereo unspecified)

>  <assayed_system>
HCT-116

>  <GI50>
> 100 µM (inactive)

$$$$
>  <molecule>
CC(SC1=CC(=O)c2c(O)ccc(O)c2C1=O)C(=O)O (stereo unspecified)

>  <assayed_system>
HCT-116

>  <GI50>
31.2 µM (inactive)

$$$$

Turning now to a further molecule:
Ask | Dear colleague, I am looking for the recorded GI50 of the following molecule: `O=C(Nc1nc2ncn(CCO)c2c(=O)[nH]1)c1ccccc1`
Reply | > 100 µM (inactive)

---

# System: SK-MEL-2
# assay_name: NCI tumour cell line growth inhibition, 48 h
The source made the active and inactive calls. Cut-off read from the data, not from the text of the source: active = GI50 up to about 1.1 µM and inactive = higher. Peptide text beside a SMILES is read from it. * marks the point of attachment. Boc = CC(C)(C)OC(=O)*; OBn = c1ccc(CO*)cc1
metric: GI50

Solved entries (count: 3):
>  <molecule>
O=C(NS(=O)(=O)OCC(Cl)(Cl)Cl)SCCC(F)(F)C(F)(F)C(F)(F)C(F)(F)C(F)(F)C(F)(F)F

>  <assayed_system>
SK-MEL-2

>  <endpoint_value>
25.3 µM (inactive)

$$$$
>  <molecule>
C[C@]12CCC(=O)C=C1CC[C@@H]1C2CC[C@]2(C)NC(=O)C(C#N)CC12 (some centres undefined)

>  <assayed_system>
SK-MEL-2

>  <endpoint_value>
> 100 µM (inactive)

$$$$
>  <molecule>
COc1cccc(CCn2c(N)c(C#N)c3ccc([N+](=O)[O-])cc3c2=O)c1

>  <assayed_system>
SK-MEL-2

>  <endpoint_value>
> 46.5 µM (inactive)

$$$$

Ask | Give SK-MEL-2 GI50 for CC(NC(=O)C(NC(=O)OC(C)(C)C)C(C)C)C(=O)N1CCCC1C(=O)NCC(=O)NC(C(=O)NCC(=O)OCc1ccccc1)C(C)C (centres undefined) (Boc-VAPGVG-OBn; configuration not given here)
Reply | > 100 µM (inactive)

Ask | Give SK-MEL-2 GI50 for `Oc1ccc2ccccc2c1OCc1nnc(CCCCCCCCc2nnc(COc3c(O)ccc4ccccc34)o2)o1`
Reply | > 100 µM (inactive)

Ask | Give SK-MEL-2 GI50 for CCOC(=O)C(Cl)(NC(=O)c1c(F)c(F)c(F)c(F)c1F)C(F)(F)F (centres undefined)
Reply | > 100 µM (inactive)

Ask | Give SK-MEL-2 GI50 for Cn1cncc1CC1COC(=O)C1C(O)c1ccccc1 (centres undefined)
Reply | > 100 µM (inactive)

Ask | Give SK-MEL-2 GI50 for COP(=O)(CC(=O)C1OC(OCc2ccccc2)C(OCc2ccccc2)C(OCc2ccccc2)C1OCc1ccccc1)OC (centres undefined)
Reply | 3.22 µM (inactive)

Ask | Give SK-MEL-2 GI50 for `CCNCCCCNCC`
Reply | > 3750 µM (inactive)

Ask | Give SK-MEL-2 GI50 for COc1cc(/C=C2/C(=O)NC(Cc3cc(OC)c(OC)c(C)c3OC)C(=O)N2Cc2ccccc2)c(OC)c(C)c1OC (centres undefined)
Reply | 30.2 µM (inactive)

Ask | Give SK-MEL-2 GI50 for CC(=O)C1(/N=N/c2ccc(S(N)(=O)=O)cc2)CCOC1=O (centres undefined)
Reply | > 100 µM (inactive)

Ask | Give SK-MEL-2 GI50 for CC(=O)N(C)SCC(NC(=O)C(Cc1ccccc1)NC(=O)OCc1ccccc1)C(=O)NC(Cc1ccccc1)C(=O)NC(Cc1cn(C=O)c2ccccc12)C(=O)NC(CCCCNC(=O)OCc1ccccc1)C(=O)NC(C(=O)NC(CSN(C)C(C)=O)C(=O)NO)C(C)OCc1ccccc1 (centres undefined)
Reply | > 100 µM (inactive)

Ask | Give SK-MEL-2 GI50 for `NCCSc1nc2ccccc2c(=O)n1-c1ccccc1`
Reply | 67 µM (inactive)

Ask | Give SK-MEL-2 GI50 for `COc1cccc(/C=C/C(=O)c2sc(C(N)=S)nc2C)c1O`
Reply | > 100 µM (inactive)

---

Listed next: entries and their corresponding GI50.
# Test system: SNB-78
# assay_name: NCI tumour cell line growth inhibition, 48 h
The source made the active and inactive calls. Rule as the data show it: active = GI50 up to about 1.1 µM and inactive = higher.

>  <molecule>
O=C1NC(=O)C(C(=O)C(=O)Nc2cc(Cl)ccc2Cl)C(=O)N1

>  <GI50>
> 100 µM (inactive)

$$$$
>  <molecule>
COC(=O)Cc1cc(=O)oc2c1C(=O)CCC2

>  <GI50>
> 100 µM (inactive)

$$$$
>  <molecule>
CCCCCC[N+](C)(C)Cc1ccc(C[N+](C)(C)CCCCCC)cc1

>  <GI50>
1.16 µM (inactive)

$$$$
>  <molecule>
O=C(c1ccc(Cl)cc1)N(C(=S)N1CCN(c2ccccn2)CC1)C1CCCCC1

>  <GI50>
> 100 µM (inactive)

$$$$

Turning now to a further molecule:
Ask | Dear colleague, I am looking for the recorded GI50 of the following molecule: CCN(N=O)C1C2(CCCC2)NC(=O)C12CCCC2 (stereo not drawn)
Reply | > 100 µM (inactive)
